Test system: non-small cell lung cancer cell line A549
experimental details: Cytotoxicity, MTT assay
Format: cell-based
experimental parameters: positive control
reported endpoint: pIC50
One number for each entry, as −log10 of the molar value.

// query pIC50 value for entry N.N.[Cl][Pt][Cl] [Cisplatin]
5.42
